# Test system: ZEAMX (Corn, Field)
# test: Postemergence herbicidal evaluation
# Format: in vivo, Zea mays
# experimental_context: postemergence, rate 0.0313 kg/ha
endpoint_name: herbicidal rating ZEAMX

> print(dat)
                                   compound            endpoint.name  measured.value
1  COC(=O)CSCCN1C(=O)CSC1=Nc1cc(-n2c(=O)cc(C(F)(F)F)n(C)c2=O)c(F)cc1Cl [Compound 158]  herbicidal rating ZEAMX             4.5
2  C#CC(C)N1C(=O)CSC1=Nc1cc(-n2c(=O)cc(C(F)(F)F)n(C)c2=O)c(F)cc1Cl (stereo not shown) [Compound 165]  herbicidal rating ZEAMX             5.0
3  CCOC(=O)CN1C(=O)CSC1=Nc1cc(N2C(=O)CC(C(F)(F)F)CC2=O)c(F)cc1Cl [Compound 169]  herbicidal rating ZEAMX             7.5
4  CN1C(=O)C(CC(=O)NO)SC1=Nc1cc(-n2c(=O)cc(C(F)(F)F)n(C)c2=O)c(F)cc1Cl (stereo not shown) [Compound 162]  herbicidal rating ZEAMX             5.0
5  Cn1c(C(F)(F)F)cc(=O)n(-c2cc(N=C3SCC(=O)N3Cc3cccc(C(F)(F)F)c3)c(Cl)cc2F)c1=O [Compound 142]  herbicidal rating ZEAMX             4.0
6  CCOC(=O)CN1C(=O)C(C(=O)OCC)SC1=Nc1cc(-n2c(=O)cc(C(F)(F)F)n(C)c2=O)c(F)cc1Cl (stereo not shown) [Compound 127]  herbicidal rating ZEAMX             4.5
7  Cn1c(C(F)(F)F)cc(=O)n(-c2cc(N=C3SCC(=O)N3Cc3ccc(Cl)cc3)c(Cl)cc2F)c1=O [Compound 145]  herbicidal rating ZEAMX             4.0

----------
# System: CASOB (Sicklepod)
# test: Postemergence herbicidal evaluation
# Type: in vivo, Cassia obtusifolia
# experimental_context: postemergence, rate 0.0625 kg/ha
Lab note: anything with herbicidal rating CASOB at or over 2 counts as True; the rest go in False.

> print(dat)
                                   compound       assay.system  group.label
1  COc1ccc(CN2C(=O)CSC2=Nc2cc(-n3c(=O)cc(C(F)(F)F)n(C)c3=O)c(F)cc2Cl)c(OC)c1  CASOB (Sicklepod)         True
2  COc1cccc(CN2C(=O)CSC2=Nc2cc(-n3c(=O)cc(C(F)(F)F)n(C)c3=O)c(F)cc2Cl)c1  CASOB (Sicklepod)         True
3  C#CC(C)N1C(=O)CSC1=Nc1cc(-n2c(=O)cc(C(F)(F)F)n(C)c2=O)c(F)cc1Cl (stereo not shown)  CASOB (Sicklepod)         True
4  COc1ccc(CN2C(=O)CSC2=Nc2cc(-n3c(=O)cc(C(F)(F)F)n(C)c3=O)c(F)cc2Cl)cc1OC  CASOB (Sicklepod)        False
5  CCOC(=O)CN1C(=O)CSC1=Nc1cc(N2C(=O)CC(C(F)(F)F)CC2=O)c(F)cc1Cl  CASOB (Sicklepod)         True

----------
# Test system: AMBEL (Ragweed, Common)
# test: Postemergence herbicidal evaluation
# Type: in vivo, Ambrosia artemisifolia
# experimental_context: Rate 0.0630 kg/ha
endpoint_name: Postemergence herbicidal rating AMBEL

> print(dat)
                                   molecule                          endpoint.name  measured.value
1  Cn1c(C(F)(F)F)cc(=O)n(-c2cc(N=C3SCC(=O)N3CCC(=O)O)c(Cl)cc2F)c1=O [Compound 31]  Postemergence herbicidal rating AMBEL             7.0
2  COC(=O)CCN1C(=O)CSC1=Nc1cc(-n2c(=O)cc(C(F)(F)F)n(C)c2=O)c(F)cc1Cl  Postemergence herbicidal rating AMBEL             9.0
3  Cn1c(C(F)(F)F)cc(=O)n(-c2cc(N=C3SCC(=O)N3CCC(=O)O)c(Cl)cc2F)c1=O [Compound 30]  Postemergence herbicidal rating AMBEL             1.0
4  Cn1c(C(F)(F)F)cc(=O)n(-c2cc(N=C3SCC(=O)N3[C@@H](Cc3ccccc3)C(=O)O)c(Cl)cc2F)c1=O  Postemergence herbicidal rating AMBEL             9.0
5  CCOC(=O)CN1CCSC1=Nc1cc(-n2nc(C)n(C(F)F)c2=O)c(F)cc1Cl  Postemergence herbicidal rating AMBEL             9.0
6  CCOC(=O)CN1C(=O)C(CC(=O)O)O/C1=N/c1cc(-n2c(=O)cc(C(F)(F)F)n(C)c2=O)c(F)cc1Cl (stereo not drawn)  Postemergence herbicidal rating AMBEL             9.0
